From: PubChem BioAssay AID540277

TARGET SYSTEM: Transient receptor potential cation channel subfamily V member 1 (Homo sapiens) (UniProt Q8NER1)
Sequence (Q8NER1 whole entry, looked up): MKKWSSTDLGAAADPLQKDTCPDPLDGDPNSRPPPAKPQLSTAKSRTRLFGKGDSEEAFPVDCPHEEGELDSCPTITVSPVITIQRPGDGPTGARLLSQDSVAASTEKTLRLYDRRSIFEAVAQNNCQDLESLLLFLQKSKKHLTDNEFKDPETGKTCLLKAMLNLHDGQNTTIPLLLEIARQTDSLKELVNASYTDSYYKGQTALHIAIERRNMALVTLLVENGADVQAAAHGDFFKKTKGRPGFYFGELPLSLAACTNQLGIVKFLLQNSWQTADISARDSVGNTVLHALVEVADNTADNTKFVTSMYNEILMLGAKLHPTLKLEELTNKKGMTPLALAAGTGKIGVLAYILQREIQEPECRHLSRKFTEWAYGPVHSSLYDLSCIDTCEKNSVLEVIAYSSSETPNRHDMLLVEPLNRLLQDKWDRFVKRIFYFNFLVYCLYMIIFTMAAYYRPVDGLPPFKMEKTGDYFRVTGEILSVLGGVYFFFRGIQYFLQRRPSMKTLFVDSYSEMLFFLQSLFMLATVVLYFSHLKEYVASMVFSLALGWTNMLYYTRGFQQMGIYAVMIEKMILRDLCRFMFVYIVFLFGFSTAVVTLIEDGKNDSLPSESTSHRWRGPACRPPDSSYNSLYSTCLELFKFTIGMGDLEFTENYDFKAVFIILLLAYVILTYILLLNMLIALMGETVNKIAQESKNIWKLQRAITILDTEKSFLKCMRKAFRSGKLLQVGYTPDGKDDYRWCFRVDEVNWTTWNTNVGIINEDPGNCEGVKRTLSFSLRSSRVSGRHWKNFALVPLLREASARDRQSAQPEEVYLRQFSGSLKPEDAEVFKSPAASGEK
ASSAY METHOD TEXT: HTS Assay for Compounds that Act as Potentiators of the Vanilloid Receptor 1
MEASUREMENT PARAMETERS: TRPV1-expressing cells, Fluo-8 calcium influx, capsaicin EC20 potentiation; at 8.33 µM; hits give high values
In all, about 320,000 compounds went through this assay and about 55 (0.02%) were called active. About 3% were inconclusive and are not listed. Only a selection was taken, and actives are over-represented in it overall.
A collection of compounds and their measured potentiation

| MOLECULAR STRING | potentiation [%] |
| --- | --- |
| COc1cccc(NC(=O)COC(=O)/C=C/c2ccco2)c1 | 11 |
| Cc1ccc2ccc3c(c2n1)NS(=O)(=O)c1ccccc1-3 | 18.5 |
| CN(CCOc1ccccc1)C(=O)c1cc(-c2ccco2)nc2ccccc12 | 1.05 |
| NC(=O)C1CCN(C(=O)c2ccc(F)c(S(=O)(=O)N3CCOCC3)c2)CC1 | -7.69 |
| COc1ccc(CCNC(=O)COc2ccc3c(c2)OCO3)cc1 | 18.8 |
| O=C(COC(=O)c1ccccc1Cl)NC1CCCCCCC1 | -4.06 |
| CC(C)Oc1ccc(C(=O)NCC(=O)Nc2ccc3c(c2)CCC3)cc1 | -17.6 |
| CCOCc1c(C(=O)N2CCN(Cc3ccc(Br)s3)CC2)oc2ccccc12 | -19.8 |
| Cc1ccc(C(=O)Nc2ccn(C)n2)cc1 | 6.57 |
| COc1ccc(-c2nc3c(c(SCC(=O)Nc4ccc(C(=O)O)cc4)n2)Cc2ccccc2O3)cc1 | 15.9 |
| O=C(NCCc1ccc(F)cc1)c1ccc2nccnc2c1 | -3.52 |

----------
TARGET SYSTEM: Transient receptor potential cation channel subfamily V member 1 (Homo sapiens) (UniProt Q8NER1)
ASSAY METHOD TEXT: HTS Assay for Compounds that Act as Potentiators of the Vanilloid Receptor 1
MEASUREMENT PARAMETERS: TRPV1-expressing cells, Fluo-8 calcium influx, capsaicin EC20 potentiation; at 8.33 µM
The whole screen tested about 320,000 compounds, of which about 55 (0.02%) were called active. Inconclusive results (about 3%) are left out. No stated cut-off is given here; in the data, active means potentiation above about 80%; inconclusive means between about 30% and that limit; inactive means weaker than that. For the sample, actives were picked, then their nearest neighbours and some compounds at random.
Outcome codes: class 1 (active), class 0 (inactive)

| COMPOUND | LABEL CLASS |
| --- | --- |
| COc1ccc(-c2cc3ncccc3cn2)cc1 | class 0 |
| O=C(Nc1ccccc1N1CCOCC1)c1ccncc1 | class 0 |
| CC(C)c1ccc(/C=C/C(=O)NCCCN2CCOCC2)cc1 | class 0 |
| Cc1ccc(/C=C/C(=O)OCC(=O)Nc2cccnc2Cl)cc1 | class 0 |
| O=C(COC(=O)Cc1ccccc1F)NCCc1ccccc1 | class 0 |
| CC(=O)N(CC1CCCO1)C1(C(=O)NC2CCCC2)CCCCC1 (stereo unspecified) | class 0 |
| CCc1cc(C(=O)Nc2nnc(C3CC3)s2)sc1C | class 0 |
| O=C(CSc1nnc(Nc2ccccc2F)s1)NC1CCCC1 | class 0 |
| O=C(CN1CCN(S(=O)(=O)c2ccc(Cl)s2)CC1)N1CCCCC1 | class 0 |
| CCOc1ncccc1C(=O)OCC(=O)Nc1cccc(S(=O)(=O)N2CCCCCC2)c1 | class 0 |
| CCN(CC)S(=O)(=O)c1ccc(OC)c(NC(=O)CCc2c(C)noc2C)c1 | class 0 |
| CCN(CC(=O)Nc1c(F)cccc1F)C(=O)c1ccc(-c2ccc(C(C)=O)cc2)o1 | class 0 |
| O=C(c1ccc(=O)[nH]c1)N(Cc1ccco1)C1(C(=O)NC2CCCCC2)CCCCC1 | class 0 |
| CCOc1ccc(S(=O)(=O)N2CCCCC2)cc1NC(=O)CN1CCCC1c1cccs1 (stereo unspecified) | class 0 |
| Cc1ccc(C(=O)NNC(=O)c2ccc3c(c2)OCCO3)cc1 | class 0 |
| COC(=O)C(C)NC(=O)COc1ccc2ccccc2c1 (stereo unspecified) | class 0 |
| Cc1cccc(NS(=O)(=O)c2ccc(C)c(C(=O)NCC(c3ccccc3)N(C)C)c2)c1 (stereo unspecified) | class 0 |
| Cc1csc2nc(COC(=O)c3cccc(N(C)C)c3)cc(=O)n12 | class 0 |
| O=c1ccc2c(-c3ccccc3S(=O)(=O)O)c3ccc(O)c(O)c3oc-2c1O | class 0 |
| Cc1cccc(OCCC(=O)OCc2csc(CC(=O)Nc3ccccc3C)n2)c1 | class 0 |
| CCOC(=O)C1=C(COC(=O)[C@H](C)NS(=O)(=O)c2ccccc2F)NC(=O)NC1C (stereo partly specified) | class 0 |
| O=S(=O)(c1cccs1)N1CCN(CCOc2ccccc2)CC1 | class 0 |
| CC1CCCN(C(=O)CN2C(=O)c3ccccc3S2(=O)=O)C1 (stereo unspecified) | class 0 |
| CC(Sc1nnc(C2CC2)n1C1CC1)C(=O)Nc1ccc(C(N)=O)cc1 (stereo unspecified) | class 0 |
| Cn1c(N)c(C(=O)COC(=O)/C=C/c2cccc(C(F)(F)F)c2)c(=O)n(C)c1=O | class 0 |
| CC(=O)NCC(=O)N(Cc1ccco1)C1(C(=O)NC2CCCC2)CCCCC1 | class 1 |
| CN(C)CCN=c1cc(-c2ccccc2)oc2ccc(Cl)cc12 | class 0 |
| CCCn1c(N)c(N(CCOC)C(=O)C2CCCC2)c(=O)[nH]c1=O | class 0 |
| COc1cc(C#Cc2ccc3cc(CCCO)oc(=O)c3c2)cc(OC)c1 | class 0 |
| COc1ccc(NC(=O)CC2SC(N3CCCCC3)=NC2=O)cc1OC (stereo unspecified) | class 0 |
| Cc1ccc(C(=O)NCC(c2cccs2)N(C)C)cc1S(=O)(=O)N1CCOCC1 (stereo unspecified) | class 0 |
| CC1CN(/C=C/C(=O)C(F)(F)F)CC(C)O1 (stereo unspecified) | class 0 |
| CCC(C(=O)N1CCN(S(=O)(=O)c2sc(C(=O)O)c(C)c2C(=O)O)CC1)c1ccccc1 (stereo unspecified) | class 0 |
| O=C(COC(=O)c1c(Cl)cccc1Cl)Nc1cccc(S(=O)(=O)NC2=NCCCCC2)c1 | class 0 |
| CC(C)n1ncc2c(C(=O)Nc3ccc(CC#N)cc3)cc(C3CC3)nc21 | class 0 |
| COc1ccc(C(C[N+](=O)[O-])n2nc(C)cc2C)cc1 (stereo unspecified) | class 0 |
